test system: U2932 TK216-resistant clone 2; assay: cell proliferation relative to vehicle (% of vehicle); higher = less growth inhibition; details: 500 nM; 72 h
Counter-ions that a name gives are not always drawn.
Recorded cell proliferation by entry

molecule	test system	cell proliferation
C=C1/C(=C\C=C2/CCC[C@]3(C)[C@@H]([C@H](C)/C=C/[C@H](C)C(C)C)CC[C@@H]23)C[C@@H](O)C[C@@H]1O	U2932 TK216-resistant clone 2	92.2
O=C(O)c1ccc(Nc2ncc3c(n2)-c2ccc(Cl)cc2C(c2c(F)cccc2F)=NC3)cc1	U2932 TK216-resistant clone 2	80.2
CN(C)C(=N)NC(=N)N [Metformin HCl]	U2932 TK216-resistant clone 2	102
CN1CCN(c2ccc3nc(-c4c(N)c5c(F)cccc5[nH]c4=O)[nH]c3c2)CC1	U2932 TK216-resistant clone 2	83.9
CC1(C)CCC(CN2CCN(c3ccc(C(=O)NS(=O)(=O)c4ccc(NCC5CCOCC5)c([N+](=O)[O-])c4)c(Oc4cnc5[nH]ccc5c4)c3)CC2)=C(c2ccc(Cl)cc2)C1	U2932 TK216-resistant clone 2	29.9
C[C@]12C=CC(=O)C=C1CC[C@@H]1[C@@H]2C(=O)C[C@@]2(C)[C@H]1CC[C@]2(O)C(=O)CO	U2932 TK216-resistant clone 2	94.8
CCOC(=O)C1=C(N)Oc2ccc(Br)cc2C1C(C#N)C(=O)OCC (configuration not stated)	U2932 TK216-resistant clone 2	95.7

###

tested on: U2932 TK216-resistant clone 3; assay: cell proliferation relative to vehicle (% of vehicle); higher = less growth inhibition; details: 50 nM; 72 h
Structures can show the parent of a compound that is named as a salt.
Recorded cell proliferation by entry

compound	cell proliferation
O=C(c1cc(Cc2n[nH]c(=O)c3ccccc23)ccc1F)N1CCN(C(=O)C2CC2)CC1	103
Cc1[nH]c(/C=C2\C(=O)Nc3ccc(S(=O)(=O)Cc4c(Cl)cccc4Cl)cc32)c(C)c1C(=O)N1CCC[C@@H]1CN1CCCC1	103
O=C(CCCCCCNC(=O)c1cnc(N(c2ccccc2)c2ccccc2)nc1)NO	110
CCCC(CCC)C(=O)O [Valproic acid sodium salt (Sodium valproate)]	103
CC(C)C[C@H](NC(=O)[C@H](CCc1ccccc1)NC(=O)CN1CCOCC1)C(=O)N[C@@H](Cc1ccccc1)C(=O)N[C@@H](CC(C)C)C(=O)[C@@]1(C)CO1	-2.24
CO[C@H]1C[C@@H]2CC[C@@H](C)[C@@](O)(O2)C(=O)C(=O)N2CCCC[C@H]2C(=O)O[C@H]([C@H](C)C[C@@H]2CC[C@@H](O)[C@H](OC)C2)CC(=O)[C@H](C)/C=C(\C)[C@@H](O)[C@@H](OC)C(=O)[C@H](C)C[C@H](C)/C=C/C=C/C=C/1C [Rapamycin (Sirolimus)]	60.3
Cc1cc(NC(=O)c2cccc(NC(=O)/C=C/CN(C)C)c2)ccc1Nc1nccc(-c2cccnc2)n1	108
CCCCCCCCCCCC1=C(O)C(=O)C=C(O)C1=O	103
COc1cc([C@@H]2c3cc4c(cc3[C@@H](O[C@@H]3O[C@@H]5CO[C@@H](C)O[C@H]5[C@H](O)[C@H]3O)[C@H]3COC(=O)[C@H]23)OCO4)cc(OC)c1O [Etoposide]	99.3
COc1ccc(F)c(F)c1C(=O)c1cnc(NC2CCN(S(C)(=O)=O)CC2)nc1N	89.4
CC#CC(=O)N1CCC[C@H]1c1nc(-c2ccc(C(=O)Nc3ccccn3)cc2)c2c(N)nccn12	75.8
C[C@]12CCC(=O)C=C1CC[C@@H]1[C@@H]2[C@@H](O)C[C@@]2(C)[C@H]1CC[C@]2(O)C(=O)CO [Hydrocortisone]	97.8
O=C(Nc1cc(C(F)(F)F)cc(C(F)(F)F)c1)c1cc(Cl)ccc1O	109
Cn1cc(/C=C2\C(=O)Nc3cccnc32)c2ccccc21	106
C[S+]([O-])c1ccc(-c2nc(-c3ccc(F)cc3)c(-c3ccncc3)[nH]2)cc1 (stereo unspecified)	93.4
CN(C)CCOc1ccc(-c2nc(-c3ccncc3)c(-c3ccc4c(c3)CC/C4=N\O)[nH]2)cc1	96.6
COc1ccc(-c2ccc3ncc4c(c3c2)n(-c2ccc(N3CCNCC3)c(C(F)(F)F)c2)c(=O)n4C)cn1	30.9
CCc1ccc(/C=C2/SC(=S)NC2=O)cc1	102
Cc1ccc(S(=O)(=O)/C=C/C#N)cc1	109
COc1ccccc1OCC(O)CN1CCN(CC(=O)Nc2c(C)cccc2C)CC1 (stereo unspecified)	95
COc1cc2ncnc(Nc3ccc(O)c(Br)c3)c2cc1OC	96.2
CCNc1nc(Nc2cc(F)c(C(=O)N3CCOCC3)cc2OC)ncc1C(F)(F)F	97.8
Cn1nnc2c(C(N)=O)ncn2c1=O [Temozolomide]	107
Cc1cccc(-c2[nH]c(CNc3ccccc3F)nc2-c2ccc3ncnn3c2)n1	99.6
Nc1nc(N)c2nc(-c3cccc(O)c3)c(-c3cccc(O)c3)nc2n1	110
C[C@@H](Nc1cc(F)cc(F)c1)c1cc(C(=O)N(C)C)cc2c(=O)cc(N3CCOCC3)oc12	99.4
CN[C@@H](C)C(=O)N[C@H](C(=O)N1CCC[C@H]1C(=O)Nc1snnc1-c1ccccc1)C1CCCCC1	97.2
FC(F)c1nc2ccccc2n1-c1nc(N2CCOCC2)nc(N2CCOCC2)n1	93.6
CO[C@H]1C[C@@H]2CC[C@@H](C)[C@@](O)(O2)C(=O)C(=O)N2CCCC[C@H]2C(=O)O[C@H]([C@H](C)C[C@@H]2CC[C@@H](OC(=O)C(C)(CO)CO)[C@H](OC)C2)CC(=O)[C@H](C)/C=C(\C)[C@@H](O)[C@@H](OC)C(=O)[C@H](C)C[C@H](C)/C=C/C=C/C=C/1C	65
COc1cc(Nc2c(C#N)cnc3cc(OCCCN4CCN(C)CC4)c(OC)cc23)c(Cl)cc1Cl [Bosutinib (SKI-606)]	103
C[C@@H](O[C@H]1OCCN(Cc2n[nH]c(=O)[nH]2)[C@H]1c1ccc(F)cc1)c1cc(C(F)(F)F)cc(C(F)(F)F)c1 [Aprepitant]	101
